Molecular target: Mitogen-activated protein kinase kinase kinase kinase 2 (Homo sapiens, UniProt Q12851); note: in the data inactive means no Kd found up to 30 µM
Sequence (Q12851 whole entry): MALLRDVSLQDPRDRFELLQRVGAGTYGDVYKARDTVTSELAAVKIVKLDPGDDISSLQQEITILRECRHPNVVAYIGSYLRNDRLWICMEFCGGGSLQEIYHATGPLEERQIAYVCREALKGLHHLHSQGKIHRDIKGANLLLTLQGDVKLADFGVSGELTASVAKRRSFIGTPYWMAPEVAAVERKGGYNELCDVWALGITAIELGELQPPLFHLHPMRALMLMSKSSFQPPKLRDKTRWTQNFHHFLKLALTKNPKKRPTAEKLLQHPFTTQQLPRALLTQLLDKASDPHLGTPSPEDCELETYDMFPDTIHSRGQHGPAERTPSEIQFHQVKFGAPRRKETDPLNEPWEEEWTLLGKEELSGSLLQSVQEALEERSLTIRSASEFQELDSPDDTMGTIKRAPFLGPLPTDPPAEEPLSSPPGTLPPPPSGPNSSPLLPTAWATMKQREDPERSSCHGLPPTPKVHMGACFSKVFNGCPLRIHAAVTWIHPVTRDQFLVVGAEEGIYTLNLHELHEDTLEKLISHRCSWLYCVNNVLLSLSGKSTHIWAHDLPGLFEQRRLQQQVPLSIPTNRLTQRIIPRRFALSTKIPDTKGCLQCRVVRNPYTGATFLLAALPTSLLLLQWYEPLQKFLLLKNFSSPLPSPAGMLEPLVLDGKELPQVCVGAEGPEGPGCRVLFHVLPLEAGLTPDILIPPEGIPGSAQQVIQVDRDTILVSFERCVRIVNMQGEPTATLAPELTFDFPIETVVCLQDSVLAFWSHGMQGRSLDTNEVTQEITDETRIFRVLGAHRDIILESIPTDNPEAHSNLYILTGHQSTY
Calls of active or inactive are those of the source.
Hi there, use one of these labels in your reply, thanks! yes (1) (active), no (0) (inactive)

Past entries and their recorded results:
COc1cc2ncnc3c2cc1OCCCCCN(C)Cc1ccc(Br)cc1N3    no (0)
CC1(COc2ccc3c(c2)ncn3-c2ccc3cccc(N4CCC(N)CC4)c3n2)COC1    no (0)
CCc1nc(C(N)=O)c(Nc2ccc(N3CCC(N4CCN(C)CC4)CC3)c(OC)c2)nc1NC1CCOCC1    yes (1)
COc1cccc2cc(-c3nc([C@H]4CC[C@H](C(=O)O)CC4)n4ncnc(N)c34)[nH]c12    no (0)
C[C@@H]1COC(Nc2ccc3ncnc(Nc4ccc(OCc5nccs5)c(Cl)c4)c3c2)=N1    no (0)

Lookup: For O=C(NC[C@H](O)CO)c1ccncc1Nc1ccc(I)cc1F , which call appears in the assay record?
Found: no (0)

Lookup: Next: C=CCN(/C=C1/C(=O)O[C@H](COC)[C@@]2(C)C1=C(O)C(=O)C1=C2[C@H](OC(C)=O)C[C@]2(C)C(=O)CC[C@@H]12)CC=C
Found: no (0)

Lookup: Quick one: CNC(=O)c1cccc(-c2ccc3c(N4CCOC[C@@H]4C)nc(N4CCOC[C@@H]4C)nc3n2)c1
Found: no (0)

Lookup: Entry O[C@H]1CC[C@H](Nc2ncc3nc(Nc4c(F)cc(F)cc4F)n([C@H]4CCOC4)c3n2)CC1 please
Found: no (0)

Lookup: Same thing, different molecule: C=CC(=O)Nc1cccc(Nc2nc(Nc3ccc(N4CCN(C(C)=O)CC4)cc3OC)ncc2C(F)(F)F)c1
Found: no (0)

Lookup: Next molecule: Cc1cc(Nc2nc(N[C@@H](C)c3ncc(F)cn3)ncc2Cl)n[nH]1
Found: no (0)

Lookup: Queued: O=C(NOC[C@H](O)CO)c1ccc(F)c(F)c1Nc1ccc(I)cc1F
Found: no (0)

Lookup: Also need COc1cc2nccc(Oc3ccc(NC(=O)C4(C(=O)Nc5ccc(F)cc5)CC4)cc3)c2cc1OC [CABOZANTINIB] , thanks.
Found: no (0)

Entry source: ChEMBL document CHEMBL3991601
